- tgt: hCCR2b (Homo sapiens, UniProt P41597)
- Sequence (P41597 1-360 isoform P41597-2): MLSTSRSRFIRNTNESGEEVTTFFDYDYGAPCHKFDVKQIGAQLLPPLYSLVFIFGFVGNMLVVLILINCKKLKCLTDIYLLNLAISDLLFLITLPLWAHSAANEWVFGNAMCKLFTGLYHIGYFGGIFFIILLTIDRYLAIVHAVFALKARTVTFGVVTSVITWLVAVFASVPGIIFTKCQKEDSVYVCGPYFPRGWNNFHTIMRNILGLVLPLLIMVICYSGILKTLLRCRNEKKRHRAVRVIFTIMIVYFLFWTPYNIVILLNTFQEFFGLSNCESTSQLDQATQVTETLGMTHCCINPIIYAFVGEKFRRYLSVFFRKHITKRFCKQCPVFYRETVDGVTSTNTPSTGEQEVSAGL
- assay remarks: CCR2 binding assay ([125I]MCP-1, SPA, CHO cell membranes)
- Parameters: expressed in transfected cells; host or cells: CHO cells (membrane preparation)
- assay conditions: membranes from CHO cells expressing hCCR2b, 50 pM [125I]MCP-1; read-out: Binding hCCR2 (Ki)
- Protocol: Membranes were prepared from CHO cells expressing mCCR2b or hCCR2b for use in ligand binding studies. […] Binding was performed for 90 min at RT with strong agitation of speed 5 (Heidolph Titramax 100 SCITEC) and bound radioactivity was measured on a PerkinElmer 1450 MicroBeta counter. Specific binding was calculated by subtracting remaining radioactivity in the presence of 1000-fold excess of unlabeled compound. Binding data were analyzed using the Genedata Screener® software.
pKi: −log10 of the molar value.
observable: pKi

INSERT INTO results (compound, tgt, observable, data_value) VALUES
  ('CC1=C(C(=O)N2CCN(c3cccc(Cl)c3)CC2)C2(CCN(C)CC2)OC1=O [Compound 112]', 'hCCR2b (Homo sapiens, UniProt P41597)', 'pKi', '5.70 to 6.30'),
  ('CC1=C(C(=O)N2CCN(c3cccc(C(F)(F)F)c3)CC2)C2(CCN(Cc3ccccc3)CC2)OC1=O [Compound 109]', 'hCCR2b (Homo sapiens, UniProt P41597)', 'pKi', '6.30 to 7.00'),
  ('CC1=C(C(=O)N2CCN(c3cccc(C(F)(F)F)c3)CC2)C2(CCN(CCC(=O)O)CC2)OC1=O [Compound 10]', 'hCCR2b (Homo sapiens, UniProt P41597)', 'pKi', '6.30 to 7.00'),
  ('CCN1CCC2(CC1)OC(=O)C(C)=C2C(=O)N1CCN(c2cccc(F)c2)CC1 [Compound 80]', 'hCCR2b (Homo sapiens, UniProt P41597)', 'pKi', '5.70 to 6.30'),
  ('COC1COCCC1N1CCC2(CC1)OC(=O)C(C)=C2C(=O)N1CCc2ccc(C(F)(F)F)cc2C1 (single isomer, unassigned; (+)) [Compound 41]', 'hCCR2b (Homo sapiens, UniProt P41597)', 'pKi', '> 7.30'),
  ('CCN1CCCC2(CC1)OC(=O)C(C)=C2C(=O)N1CCN(c2cccc(C(F)(F)F)c2)CC1 (stereo not drawn) [Compound 121]', 'hCCR2b (Homo sapiens, UniProt P41597)', 'pKi', '> 7.30'),
  ('CCN1CCC2(CC1)OC(=O)C(C)=C2C(=O)N1CCN(c2cncc(C(F)(F)F)c2)CC1 [Compound 60]', 'hCCR2b (Homo sapiens, UniProt P41597)', 'pKi', '7.00 to 7.30'),
  ('COc1ccccc1CCN1CCC2(CC1)OC(=O)C(C)=C2C(=O)N1CCN(c2cccc(C(F)(F)F)c2)CC1 [Compound 63]', 'hCCR2b (Homo sapiens, UniProt P41597)', 'pKi', '> 7.30'),
  ('CCN1CCC2(CC1)OC(=O)C(C)=C2C(=O)Nc1cnn(-c2ccc(C(F)(F)F)cc2)c1 [Compound 67]', 'hCCR2b (Homo sapiens, UniProt P41597)', 'pKi', '5.70 to 6.30'),
  ('COC(CN1CCC2(CC1)OC(=O)C(C)=C2C(=O)N1CCN(c2cccc(C(F)(F)F)c2)CC1)c1ccccc1 (stereo not drawn) [Compound 7]', 'hCCR2b (Homo sapiens, UniProt P41597)', 'pKi', '7.00 to 7.30'),
  ('COCCN1CCC2(CC1)OC(=O)C(C)=C2C(=O)N1CCN(c2cccc(C(F)(F)F)c2)CC1 [Example 4]', 'hCCR2b (Homo sapiens, UniProt P41597)', 'pKi', '> 7.30'),
  ('CCN1CCC2(CC1)OC(=O)C(C)=C2C(=O)N1CCN(c2cc(Cl)cc(Cl)c2)CC1 [Compound 114]', 'hCCR2b (Homo sapiens, UniProt P41597)', 'pKi', '6.30 to 7.00');
